- TARGET DESC: Prostaglandin G/H synthase 2 (Mus musculus, UniProt Q05769)
- Sequence (Q05769 whole entry): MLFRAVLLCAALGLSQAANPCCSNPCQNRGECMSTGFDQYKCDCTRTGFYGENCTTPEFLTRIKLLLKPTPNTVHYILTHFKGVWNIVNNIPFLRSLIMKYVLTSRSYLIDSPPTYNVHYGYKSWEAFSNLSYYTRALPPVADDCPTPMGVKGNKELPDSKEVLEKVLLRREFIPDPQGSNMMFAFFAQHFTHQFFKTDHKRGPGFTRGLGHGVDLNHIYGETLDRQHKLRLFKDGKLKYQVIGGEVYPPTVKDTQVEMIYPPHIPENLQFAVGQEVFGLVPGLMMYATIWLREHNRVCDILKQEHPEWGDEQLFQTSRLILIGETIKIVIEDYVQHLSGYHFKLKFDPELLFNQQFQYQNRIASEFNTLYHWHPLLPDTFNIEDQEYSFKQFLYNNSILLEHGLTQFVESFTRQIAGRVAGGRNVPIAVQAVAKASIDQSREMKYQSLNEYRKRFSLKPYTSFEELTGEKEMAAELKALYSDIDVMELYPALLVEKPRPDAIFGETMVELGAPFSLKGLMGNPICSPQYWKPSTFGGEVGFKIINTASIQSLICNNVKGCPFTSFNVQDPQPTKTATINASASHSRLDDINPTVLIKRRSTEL
// values below are reported IC50
I only need the number, in nM, no unit after it.

Solved entries (count: 2):
> print(dat)
                                   molecule  experimental.result
1  CCOC(=O)C(OCC)c1cc(-c2ccc(S(C)(=O)=O)cc2)n(-c2ccc(OC)cc2)c1C (racemic)                  130
2  CCOC(=O)[C@@H](OCC)c1cc(-c2ccc(S(C)(=O)=O)cc2)n(-c2ccccc2)c1C                  100

Qu. Need IC50, item CCOC(=O)C(OCC)c1cc(-c2ccc(S(C)(=O)=O)cc2)n(-c2cccc(F)c2)c1C (racemic)
Ans. 100

Qu. Fill blank: measured IC50 of the molecule CCOC(=O)[C@@H](OCC)c1cc(-c2ccc(S(C)(=O)=O)cc2)n(-c2cccc(F)c2)c1C is ____.
Ans. 250
